# Tested on: PPARa:RXRa (NR concentration 270 nM, RXRa partner concentration 90 nM)
# method-notes: PBM binding z-score (relative to random genomic background probes); higher = stronger binding; sequences stand for … in GC…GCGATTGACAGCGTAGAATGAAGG
parameter: PBM binding z-score
Just the number, please.

1) ATCGAAAGGTCGATGGTGAGTATACCCACCCGAA    3.29
2) ACAGACAGGTGAGTAAAGGTAACTCAGCTGGACG    0.95
3) CCGACTGGGGCAGAAGGGTTACCATACCATCCGG    0.847
4) TCATATAGGTAATACAGGTGAAATTCGGCATCTA    1.96
5) CCGGACAGGTGAAAGGTAACTCAGTCTGGTACGC    3.17
6) CCTCGGAGGACAACAGGAGGTCAGTGCTGCCAGA    1.62

GET PBM binding z-score | system: PPARa:RXRa (NR concentration 270 nM, RXRa partner concentration 90 nM) | item: `CTCGAAAGGACGGTTGAGGTGAGTATACGGATAA`
0.0414

# assay system PPARa:RXRa (NR concentration 270 nM, RXRa partner concentration 90 nM): give PBM binding z-score of `CTACCAAGGTGAACAAGGTCGTTAATTACTATTC`
2.61

// output PBM binding z-score; input `TCGAGTAGGTGACCAATGGGGCATTCAGCTTTCT` ; system PPARa:RXRa (NR concentration 270 nM, RXRa partner concentration 90 nM)
0.875

Report PBM binding z-score from PPARa:RXRa (NR concentration 270 nM, RXRa partner concentration 90 nM) testing of `GCTTACGGGTCAAAGGTTATAGAATGAATAGAAT`
7

Enter measured PBM binding z-score, system PPARa:RXRa (NR concentration 270 nM, RXRa partner concentration 90 nM), for the sequence shown: `GATACAGGGTCAGCTAGAGGCCAGCGTATGGAAA`
4.37

Look up PPARa:RXRa (NR concentration 270 nM, RXRa partner concentration 90 nM) data: PBM binding z-score of `GCTATTAGTTGAAAGGGCAGCCGAATGATTCTCG` , then report it.
1.69
